- System: UACC-257
- METHOD: Cytotoxicity against human UACC257 cells after 24 hrs by SRB assay
- Type: cell-based
- EXPERIMENTAL_CONDITIONS: uacc-257, 24 h
REPORTED_ENDPOINT: LC50 (µM)
// units = µM; emit number, no label

| STRUCTURE | VALUE_UNITS | LC50 |
| --- | --- | --- |
| COc1ccc(C(=O)/C=C/c2cc3ccccc3[nH]c2=O)cc1 | µM | 65.5 |

Please find the next molecule below.
Give its LC50 value. Item: O=C(/C=C/c1cc2ccccc2[nH]c1=O)c1ccc(O)cc1
47.9
